The origin of these recorded values is patent US10510981B2.

Assay: solubility of the compound adopted in the capping layer
Assay type: physicochemical
Details: thermodynamic from solid, saturated solution, liquid chromatography against a standard curve, solvent not given
Provide the reported solubility of each item.
Answers are plain numbers, in µg/mL.

Cc1cc(-c2ccc(N(c3ccc(-c4ccccc4)cc3)c3ccc(-c4ccccc4)cc3)c(C)c2)ccc1N(c1ccc(-c2ccccc2)cc1)c1ccc(-c2ccccc2)cc1 : 211

Quick request: solubility for each listed item, please.
1. CCCCc1ccc(N(c2ccc(-c3ccc(N(c4ccc(C)c(C)c4)c4ccc(CCCC)c(C)c4)cc3)cc2)c2ccc(C)c(C)c2)cc1C
2. CCCCc1ccc(N(c2ccc(-c3ccc(N(c4ccc(CCCC)cc4)C4CCCCC4)c(C)c3)cc2C)C2CCCCC2)cc1 [reference compound]
3. CCCCc1ccc(N(c2ccc(C)c(C)c2)c2ccc(-c3ccc(N(c4ccc(CCCC)cc4)c4ccc(C)c(C)c4)c(C)c3)cc2C)cc1
4. C#Cc1ccc(N(c2ccc(CCCC)cc2)c2ccc(-c3ccc(N(c4ccc(CCCC)cc4)c4ccc(C#C)c(C)c4)c(C)c3)cc2C)cc1C
5. CCc1ccc(-c2ccc(N(c3ccc(-c4ccc(CC)cc4)cc3)c3ccc(-c4ccc(N(c5ccc(-c6ccc(CC)cc6)cc5)c5ccc(-c6ccc(CC)cc6)cc5)c(C)c4)cc3C)cc2)cc1
6. Cc1ccc(N(c2ccc(C(C)C)cc2)c2ccc(-c3ccc(N(c4ccc(C(C)C)cc4)c4ccc(C)cc4C)c(C)c3)cc2C)c(C)c1
7. Cc1cc(-c2ccc(N(c3ccc(-c4ccc(-c5ccccc5)cc4)cc3)c3ccc(-c4ccc(-c5ccccc5)cc4)cc3)c(C)c2)ccc1N(c1ccc(-c2ccc(-c3ccccc3)cc2)cc1)c1ccc(-c2ccc(-c3ccccc3)cc2)cc1 [reference compound]
8. CCCCc1ccc(N(c2ccc(C)cc2C)c2ccc(-c3ccc(N(c4ccc(CCCC)cc4)c4ccc(C)cc4C)c(C)c3)cc2C)cc1

[340, 566, 210, 298, 210, 205, 430, 312]

Quick request: solubility for each listed item, please.
1. C=Cc1ccc(N(c2ccc(CCCC)cc2)c2ccc(-c3ccc(N(c4ccc(CCCC)cc4)c4ccc(C=C)c(C)c4)c(C)c3)cc2C)cc1C
2. Cc1ccc(N(c2ccc(-c3ccc(N(c4ccc(C(C)C)cc4)c4ccc(C)cc4C)cc3)cc2)c2ccc(C(C)C)cc2)c(C)c1

1. 300
2. 309
